System: OVCAR-8 ovarian
Assay: NCI-60 one-dose screen, 48 h (100 = growth as untreated, 0 = no growth, -100 = all killed)
Settings: 10 µM unless noted
Protocol: Growth inhibition of the OVCAR-8 human tumor cell line is measured as a screen for anti-cancer activity. Cells are grown in 96 well plates and exposed to the test compound for 48 hours. Compounds are tested at a single concentration, which is 10^-5 M for most compounds. The reported endpoint is percent growth (GI% or GIPRCNT), where numbers from 0 - 100% represent growth inhibition, and numbers from -100% - 0 represent cell death. For example, a value of 40 represents 60% growth inhibition. […]
About 83,000 compounds went through this panel and 20% of them were active in at least one assay; those are over-represented in the sample as a whole.

compound: CCC/C(=N/NC(N)=O)c1ccco1
growth (%): 98
--
compound: C/C=C/C(=O)OCCCCCCCCCCCC
growth (%): 90.5
--
compound: COc1cc(C2c3cc4c(cc3C(OC(=O)C[n+]3ccccc3)C3COC(=O)C23)OCO4)cc(OC)c1OC (stereo not given)
growth (%): 14.7
--
compound: CC(=O)/C(N=Nc1ccc(S(=O)(=O)c2ccc(N=N/C(C(C)=O)=C(/C)O)cc2)cc1)=C(\C)O
growth (%): 102
--
compound: Cc1c(Cl)c(C)c(Cc2c(C)c(Cl)c(C)c(Cl)c2O)c(O)c1Cl
growth (%): 11.4

###

tested on: SN12C renal; assay: NCI-60 one-dose screen, 48 h (100 = growth as untreated, 0 = no growth, -100 = all killed); details: 10 µM unless noted
The panel holds about 83,000 compounds, 20% with a hit somewhere; the sample as a whole holds those more often.
Rule: growth under 90% gives Not met, otherwise Met.

compound: CC1CC(O)CC(C)(C)C1.CC1CC(O)CC(C)(C)C1.CC1CC(O)CC(C)(C)C1.CC1CC(O)CC(C)(C)C1.[Ti] (configuration not stated)
label-value: Not met
--
compound: NNC(=O)Nc1ccccc1
label-value: Met
--
compound: CCC/C(=N/NC(N)=O)c1ccco1
label-value: Met
--
compound: Cc1nc(Nc2ccc(Cl)cc2)c2cnn(-c3ccccc3)c2n1
label-value: Met
--
compound: Cc1c(Cl)cc(Cl)c(N)c1Cl
label-value: Met
--
compound: COC(=O)C(Cc1cn(C(C)=O)c2ccccc12)P(=O)(OC)OC (configuration not stated)
label-value: Met
--
compound: C#CCOC(=O)C(N)CS (configuration not stated)
label-value: Not met
--
compound: CC(O)CCNC(c1ccccc1)C(O)c1ccccc1 (configuration not stated)
label-value: Met
--
compound: OCc1cccc(F)c1
label-value: Not met
--
compound: O=C(O)COc1ccccc1F
label-value: Met

###

# maps each entry to its growth
system: HCT-15 colon; experiment: NCI-60 one-dose screen, 48 h (100 = growth as untreated, 0 = no growth, -100 = all killed); conditions: 10 µM unless noted
This is part of a sample that, as a whole, favours compounds with a hit. Of some 83,000 tested, about 20% had one in any assay. Activity calls are given as the source filed them. How the source made its calls: active means growth percent below 10; inactive means the rest.
value-type: growth

compound: O=COCCCc1ccccc1
value-type: growth
endpoint-value: 107% (inactive)
--
compound: CN(C)C(=S)N(C)C
value-type: growth
endpoint-value: 102% (inactive)
--
compound: C#CCOC(=O)C(N)CS (stereo not drawn)
value-type: growth
endpoint-value: 100% (inactive)
--
compound: O=C(O)c1ccc2c3ccc(C(=O)O)c4c(C(=O)O)ccc(c5ccc(C(=O)O)c1c25)c43
value-type: growth
endpoint-value: 108% (inactive)
--
compound: C/C(CC(C)C)=N/NC(N)=S
value-type: growth
endpoint-value: 79.4% (inactive)
--
compound: OCCS
value-type: growth
endpoint-value: 104% (inactive)
--
compound: Nc1ccc(Cl)c(S(=O)(=O)O)c1
value-type: growth
endpoint-value: 101% (inactive)
--
compound: C/C=C(/C(=O)NC(N)=O)C(C)C
value-type: growth
endpoint-value: 110% (inactive)
